- SUBJECT OF TEST: RSV prefusion F (preF), subtype A (respiratory syncytial virus, subtype A, UniProt P03420 26-513)
- ASSAY NAME: BLI, IgG
MEASURED PARAMETER: pKd
One number for each entry, as −log10 of the molar value.

Below, each entry is followed by its recorded pKd result.
binder="ADI-21029 (antibody, V domains shown) VH: QVQLVQSGAEVRKPGESLKISCKASGYSFTNYWIGWVRQMPGKGLEWMGIVYPADSHPVYSPSFQGQVTFSTDKSINTAYLQWSSLKASDTAMYFCARRDGGTDYLSDAFDIWGQGTMVTVSS VL: DIVMTQSPSSLSASVGDRVTITCRTSQSIRRYLNWYQQKPGKAPKLLIYAASSLQSGVPSRFSGSGSGTDFTLTISSLQPEDFATYYCQQSYSTPNTFGQGTKVEIK" reading=8.42
binder="ADI-14600 (antibody, V domains shown) VH: QVQLVQSGGGLVKPGGSLRLSCAASGFSFSDYYMNWIRQAPGKGLEWVSYISSSSSYTNYADSVKGRFTISRDNAKKSLYLQMNSLRAEDTAVYYCASQTYSDYARGGAFDIWGQGTTVTVSS VL: QSVLTQPPSVSGAPGQRVTISCTGSSSNIGAGYDVHWYQQLPGTAPKLLIYGNNNRPSGVPDRFSGSKSGTSASLAITGLQAEDEADYYCQSYDSSLSGSVFGTGTKVTVL" reading=9.12

# return pKd for each item in the list
1. ADI-21009 (antibody, V domains shown, also called Ab 260) VH: QVQLVQSGAEMKTPGASVKVSCKASGYSFSNYGFTWVRQAPGQGLEWMGWISGYSAKTNYAQDLQGRVTMTIDTSTSTSYMELRSLRSDDTAVYYCARDPLGYFGSGTYRGGAFDFWGQGTTVTVSS VL: QSALTQPASVSGSPGQSITLSCTGTNNDVGSYHLVSWYQQYPGKAPKLVIYEVTKRPSGVSNRFSGSKSGNTASLTISGLQPEDEADYYCCSYAGDRRIFGGGTKVTVL
2. ADI-14427 (antibody, V domains shown, also called Ab 93) VH: QVQLVQSGAEVKKPGSSVKVSCKASGGTFNSYTINWVRQAPGQGLEWMGRIITIPGATNYAQKFQGRVTFTADKSTSTAYMELSSLRSEDTAVYFCAKRGTGYYGMDVWGQGTTVTVSS VL: QSVLIQPRSVSGSPGQSVTISCTGTSSDVGGYNYVSWYQQHPGKAPKLMIYDVSERPSGVPDRFSGSKSGNTASLTISGLQAEDEADYYCCSFVGIYILVFGGGTKLTVL
3. ADI-20975 (antibody, V domains shown) VH: QVQLVESGTHVKKPGASVKVSCEASDDTFNNKGIVWVRQAPGQGLEWMGWIRPNNGNTKYAQKFQGRVTMTTDASTNTAYMELRSLRSGDTAVYYCAREQFKWNDFYFDYWGQGILVTVSS VL: SYELMQPPSVSVAPGQTATITCGGSNIGSETVHWYQQKPGQAPVLVVHDDTDRPSGIPERFSGSNSGNTATLTISGVEAGDEADFYCQVRDSRTDDVVFGGGTKLTVL

Output:
[8.31, 9.63, 10.04]
